Reported values of TGI for individual entries
tested on: HOP-18 NSCLC; test: NCI tumour cell line growth inhibition, 48 h

// known answers, use as guide
Please list TGI recorded for the compound O=C1CCCCC1S(=O)(=O)c1ccccc1 (configuration not stated) > 100 µM

Please list TGI recorded for the compound Cc1ccc2c(c1)-c1c3c(nn1-c1ccccc1)-c1ccccc1SC3O2 (configuration not stated) > 100 µM

Please list TGI recorded for the compound CC(=O)Oc1cc2c(cc1OC(C)=O)OCC(c1ccc(C)cc1)C2 (configuration not stated) 62.1 µM

Please list TGI recorded for the compound [Cl][Sn]([c]1ccccc1)([c]1ccccc1)[c]1ccccc1 0.113 µM

Please list TGI recorded for the compound O=[N+]([O-])c1ccc(-n2nnc(C3=NCCN3)c2-c2ccccc2)cc1 > 100 µM

---
Please list TGI recorded for the compound COc1cc2ccnc3c2c(c1OC)-c1coc(SC)c1-3 > 100 µM

Please list TGI recorded for the compound CSc1nnc(CCC(=O)Nc2c(C)cccc2C)o1 > 100 µM

Please list TGI recorded for the compound O=C(O)CC[C@H](NC(=O)c1ccc(-n2nc3ccc(O)cc3nc2=O)cc1)C(=O)O > 100 µM

Please list TGI recorded for the compound C=C/C=C/NC(=O)OCc1ccccc1 > 100 µM

Please list TGI recorded for the compound CC(CN(C)C)/C(=N\Nc1ccccc1)c1ccccc1 (configuration not stated) 67.3 µM

Please list TGI recorded for the compound COc1cc2ccc(=O)oc2cc1O 521 µM

Please list TGI recorded for the compound O=c1cnn(C2OC(CO)C(O)C2O)c(=S)[nH]1 (configuration not stated) > 100 µM

====

Reported values of GI50 for individual entries
test system: OVCAR-8 ovarian; test: NCI tumour cell line growth inhibition, 48 h

// known answers, use as guide
Fill in GI50 for COc1cccc(-c2c[nH]c3c(N/N=C/c4ccncc4)ncnc23)c1 tested with OVCAR-8 ovarian. 2570 nM

Fill in GI50 for O=C(/C=C/Sc1cc(C(F)(F)F)cc(C(F)(F)F)c1)c1ccc(Cl)cc1 tested with OVCAR-8 ovarian. 9900 nM

Fill in GI50 for CN1CCN(C(=O)C(C)(C)c2ccc(C(=O)Nc3cn4cc(-c5ccncc5)ccc4n3)cc2)CC1 tested with OVCAR-8 ovarian. 347 nM

Fill in GI50 for Cc1ccccc1OCC(O)CN1CCN(c2ccc(Cl)cc2)CC1 (centres undefined) tested with OVCAR-8 ovarian. 21000 nM

---
Fill in GI50 for Cc1cc(C)nc(SC2=C(Nc3ccc(C)c(Cl)c3)C(=O)N(Cc3ccccc3)C2=O)n1 tested with OVCAR-8 ovarian. > 160000 nM

Fill in GI50 for Cc1cc(NCCCN(C)C)c2ccc3c(ccc4c(NCCCN(C)C)cc(C)nc43)c2n1 tested with OVCAR-8 ovarian. 114 nM

Fill in GI50 for NCCCC[C@@H]1NC(=O)[C@H]2CCCN2C(=O)[C@H](Cc2ccccc2)CNC(=O)[C@H](Cc2ccccc2)NC1=O tested with OVCAR-8 ovarian. > 37500 nM

Fill in GI50 for CN(C)CCN1C(=O)c2c(c3c4ccccc4n4c3c3c2c2ccccc2n3C2CC(O)C(O)C4(C)O2)C1=O (centres undefined) tested with OVCAR-8 ovarian. 1470 nM

Fill in GI50 for CSC1=C(N)C(=O)c2[nH]cc(CO)c2C1=N tested with OVCAR-8 ovarian. 275 nM
